SYSTEM: Calmodulin-1 (Homo sapiens) (UniProt P0DP23)
EXPERIMENTAL DETAILS: small molecules binding calmodulin-1 with EGTA – biochemical, small-molecule microarray, Cy5-labelled CALM1, profiling panel (AID 1111);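 also: labelled calmodulin applied in Tris saline Tween buffer holding calcium plus EGTA and DTT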
REPORTED CONDITIONS: Cy5-CALM1 binding fluorescence, higher = more signal
ATTRIBUTE MEASURED: composite z-score

Recorded results for 3 molecules are shown here.
MOLECULE: CCOC(=O)C[C@H]1[C@H](OC(=O)c2ccc(C(=O)c3ccccc3)cc2)[C@@H](NC(=O)c2ccc(-c3ccccc3)cc2)c2cc(OCCCO)ccc2N1C(=O)Cc1ccc(OC)cc1
composite z-score: 0.439
--
MOLECULE: O=C1[C@H]2C=C(I)[C@H](C[C@@H]2OCCOCCO)[C@@]12CO2
composite z-score: -0.315
--
MOLECULE: CCCCC(CC)C(O)C1C=CC2C(=O)N(c3ccccc3)C(=O)C2N1Nc1ccccc1F (stereo unspecified)
composite z-score: 0.0117

**Q:** What value of composite z-score has been reported for the following molecule? CC1CC/C=C\[C@H]2OC34C=CCN(C(C)(C)C)C(=O)[C@H]3N(CCCCCO)C(=O)[C@@H]4C2C(=O)O1 (stereo partly specified)
**A:** -0.835

**Q:** What value of composite z-score has been reported for the following molecule? COC(=O)[C@@]1(Cc2ccc(OC)cc2)[C@H]2c3cc(C(=O)N(C)C)n(Cc4ccc(OC(F)(F)F)cc4)c3C[C@H]2CN1C(=O)c1ccccc1
**A:** 0.417

**Q:** What value of composite z-score has been reported for the following molecule? Oc1ccc2cc[n+](Cc3cc4c(cc3Br)OCO4)cc2c1
**A:** -0.489
